Study target: human PRMT1 (Homo sapiens, UniProt Q99873)
Construct: GST-tagged PRMT1; made in house; host or cells: High Five insect cells (baculovirus, pFastBac1)
Sequence (Q99873 with tags, fused parts or gaps): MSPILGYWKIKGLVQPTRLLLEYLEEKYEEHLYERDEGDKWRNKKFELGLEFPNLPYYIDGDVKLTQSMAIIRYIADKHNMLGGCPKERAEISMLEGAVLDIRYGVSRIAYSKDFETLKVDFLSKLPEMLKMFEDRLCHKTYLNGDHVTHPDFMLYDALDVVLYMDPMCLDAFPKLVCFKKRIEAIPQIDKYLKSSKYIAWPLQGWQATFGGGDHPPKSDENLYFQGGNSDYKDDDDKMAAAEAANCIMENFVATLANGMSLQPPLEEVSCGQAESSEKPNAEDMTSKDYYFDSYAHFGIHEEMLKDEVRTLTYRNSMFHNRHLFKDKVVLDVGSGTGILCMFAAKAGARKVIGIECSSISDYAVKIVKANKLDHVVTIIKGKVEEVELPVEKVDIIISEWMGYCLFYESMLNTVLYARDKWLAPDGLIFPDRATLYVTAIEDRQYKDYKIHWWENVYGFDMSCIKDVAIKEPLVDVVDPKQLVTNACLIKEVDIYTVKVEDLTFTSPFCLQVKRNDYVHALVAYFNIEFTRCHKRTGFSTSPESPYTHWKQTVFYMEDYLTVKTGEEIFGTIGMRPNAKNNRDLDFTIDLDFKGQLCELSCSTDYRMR
Assay explanation: PRMT1 Biochemical Assay
Condition: peptide substrate, 3H-SAM Flashplate assay; read-out: PRMT1 IC50
Source text: S-adenosylmethionine (SAM), S-adenosylhomocysteine (SAH), bicine, Tween20, dimethylsulfoxide (DMSO), bovine skin gelatin (BSG), and Tris(2-carboxyethyl)phosphine hydrochloride solution (TCEP) were purchased from Sigma-Aldrich at the highest level of purity possible. ^3H-SAM was purchase from American Radiolabeled Chemicals with a specific activity of 80 Ci/mmol. 384-well streptavidin Flashplates were purchased from PerkinElmer. […]
Catalogue of IC50 values
Quantity name: IC50

{"Compound": "CN(CCN)Cc1c[nH]nc1-c1ccc2c(c1)OCC(=O)N2", "Study target": "human PRMT1 (Homo sapiens, UniProt Q99873)", "Quantity name": "IC50", "Assay value": "65.4 nM"}
{"Compound": "CNCCN(C)Cc1c[nH]nc1-c1ccc(CC(C)C)cc1", "Study target": "human PRMT1 (Homo sapiens, UniProt Q99873)", "Quantity name": "IC50", "Assay value": "8.04 nM"}
{"Compound": "CCN(CCOc1cccc(OC)c1)c1ccc(-c2n[nH]cc2CN(C)CCNC)cc1", "Study target": "human PRMT1 (Homo sapiens, UniProt Q99873)", "Quantity name": "IC50", "Assay value": "9.26 nM"}
{"Compound": "CNCCN(C)Cc1c[nH]nc1-c1cc(F)c(OCC2CCOCC2)c(C(F)(F)F)c1", "Study target": "human PRMT1 (Homo sapiens, UniProt Q99873)", "Quantity name": "IC50", "Assay value": "39.1 nM"}
{"Compound": "CCN(Cc1ccncc1)c1ccc(-c2n[nH]cc2CN(C)CCNC)cn1", "Study target": "human PRMT1 (Homo sapiens, UniProt Q99873)", "Quantity name": "IC50", "Assay value": "37.4 nM"}
{"Compound": "CNCCN(C)Cc1c[nH]nc1-c1ccc(N2CCCC2=O)cc1", "Study target": "human PRMT1 (Homo sapiens, UniProt Q99873)", "Quantity name": "IC50", "Assay value": "29.7 nM"}
{"Compound": "CNCCN(C)Cc1cnn(C)c1-c1cccc(CC(C)C)c1", "Study target": "human PRMT1 (Homo sapiens, UniProt Q99873)", "Quantity name": "IC50", "Assay value": "47.5 nM"}
{"Compound": "CNCCN(C)Cc1c[nH]nc1-c1ccc(OCCOc2cccnn2)cc1", "Study target": "human PRMT1 (Homo sapiens, UniProt Q99873)", "Quantity name": "IC50", "Assay value": "24.2 nM"}
{"Compound": "CNCCN(C)Cc1c[nH]nc1-c1ccc(C#N)cc1", "Study target": "human PRMT1 (Homo sapiens, UniProt Q99873)", "Quantity name": "IC50", "Assay value": "16.1 nM"}
{"Compound": "CNCCN(C)Cc1cnn(C)c1-c1ccc(OC2CCOCC2)cc1", "Study target": "human PRMT1 (Homo sapiens, UniProt Q99873)", "Quantity name": "IC50", "Assay value": "23 nM"}
{"Compound": "CNCCN(C)Cc1ccnn1-c1ccc(OC(C)C)cc1", "Study target": "human PRMT1 (Homo sapiens, UniProt Q99873)", "Quantity name": "IC50", "Assay value": "19.8 nM"}
{"Compound": "CN(CCN)Cc1c[nH]nc1-c1ccc(N2CCOCC2)cc1", "Study target": "human PRMT1 (Homo sapiens, UniProt Q99873)", "Quantity name": "IC50", "Assay value": "44.3 nM"}
{"Compound": "CNCCN(C)Cc1c[nH]nc1-c1ccc(N(C)CCOc2ccc(OC)cc2)cc1", "Study target": "human PRMT1 (Homo sapiens, UniProt Q99873)", "Quantity name": "IC50", "Assay value": "8.8 nM"}
{"Compound": "CNCCN(C)Cc1c[nH]nc1-c1ccc(OC(CO)CC(C)C)cc1 (stereo not drawn)", "Study target": "human PRMT1 (Homo sapiens, UniProt Q99873)", "Quantity name": "IC50", "Assay value": "41.2 nM"}
{"Compound": "CNCCN(C)Cc1c[nH]nc1-c1ccc(OCCOc2ccc(OCCOC)cc2)cc1", "Study target": "human PRMT1 (Homo sapiens, UniProt Q99873)", "Quantity name": "IC50", "Assay value": "15.3 nM"}
{"Compound": "COCCOc1cc(-c2n[nH]cc2CN(C)CCN)cc(C(F)(F)F)c1", "Study target": "human PRMT1 (Homo sapiens, UniProt Q99873)", "Quantity name": "IC50", "Assay value": "25.5 nM"}
{"Compound": "CNCCN(C)Cc1c[nH]nc1-c1cc(OCC2CCOC2)cc(C(F)(F)F)c1 (stereo not drawn)", "Study target": "human PRMT1 (Homo sapiens, UniProt Q99873)", "Quantity name": "IC50", "Assay value": "33.3 nM"}
{"Compound": "CCC(CC)Oc1ccc(-n2ncc(C)c2CN(C)CCNC)cc1", "Study target": "human PRMT1 (Homo sapiens, UniProt Q99873)", "Quantity name": "IC50", "Assay value": "38.1 nM"}
{"Compound": "CNCCN(C)Cc1c[nH]nc1-c1ccc(N(C)CCCOc2ccc(OC)cc2)cc1 [Compound 12]", "Study target": "human PRMT1 (Homo sapiens, UniProt Q99873)", "Quantity name": "IC50", "Assay value": "5.25 nM"}
{"Compound": "CNCCN(C)Cc1c[nH]nc1-c1cc(Cl)c(OCC(C)C)c(Cl)c1", "Study target": "human PRMT1 (Homo sapiens, UniProt Q99873)", "Quantity name": "IC50", "Assay value": "3.51 nM"}
{"Compound": "CCCOCCOc1cc(-c2n[nH]cc2CN(C)CCNC)cc(C(F)(F)F)c1", "Study target": "human PRMT1 (Homo sapiens, UniProt Q99873)", "Quantity name": "IC50", "Assay value": "12.7 nM"}
{"Compound": "CNCCN(C)Cc1c[nH]nc1-c1ccc(OCCOc2cccc(OCCC3CCOCC3)c2)cc1", "Study target": "human PRMT1 (Homo sapiens, UniProt Q99873)", "Quantity name": "IC50", "Assay value": "5.49 nM"}
{"Compound": "CNCCN(C)Cc1c[nH]nc1-c1ccc(OCCOc2ccc(Oc3ccccc3)cc2)cc1", "Study target": "human PRMT1 (Homo sapiens, UniProt Q99873)", "Quantity name": "IC50", "Assay value": "4.79 nM"}
{"Compound": "CC(C)Cc1ccc(-c2n[nH]cc2CN(C)CCN)cc1C(F)(F)F", "Study target": "human PRMT1 (Homo sapiens, UniProt Q99873)", "Quantity name": "IC50", "Assay value": "10.4 nM"}
{"Compound": "CNCCN(C)Cc1c[nH]nc1-c1ccc(OCCOc2ccc(OCc3ccccc3)cc2)cc1", "Study target": "human PRMT1 (Homo sapiens, UniProt Q99873)", "Quantity name": "IC50", "Assay value": "5.12 nM"}
{"Compound": "CNCCN(C)Cc1c[nH]nc1[C@H]1CC[C@@H](OCCOc2ccc(OCCOC)cc2)CC1", "Study target": "human PRMT1 (Homo sapiens, UniProt Q99873)", "Quantity name": "IC50", "Assay value": "7.37 nM"}
{"Compound": "CNCCN(C)Cc1c[nH]nc1-c1ccc(OCCOc2ccc(C3CCOCC3)cc2)cc1", "Study target": "human PRMT1 (Homo sapiens, UniProt Q99873)", "Quantity name": "IC50", "Assay value": "5.23 nM"}
